Reference for the values: patent US20110092544A1

Test system: Septoria tritici
Experiment: Test C: wheat leaf blotch, preventive spray on wheat seedlings, visual disease rating
Type: in vivo
Conditions: 40 ppm (compound number followed by *)
Source text: General protocol for preparing test suspensions for Tests A-H: The test compounds were first dissolved in acetone in an amount equal to 3% of the final volume and then suspended at the desired concentration (in ppm) in acetone and purified water (50/50 mix) containing 250 ppm of the surfactant Trem® 014 (polyhydric alcohol esters). […]
REPORTED PROPERTY: Test C rating (% disease control) (%)
Give the number; % is assumed, so skip it.

Enquiry: Complete the entry with Test C rating (% disease control) for COc1cc(OC)cc(-c2c(C(C)C)cnc(C)c2-c2c(F)ccc(F)c2F)c1
Return: 92

Enquiry: Complete the entry with Test C rating (% disease control) for C=C(C)c1cnc(C)c(-c2c(F)ccc(F)c2F)c1-c1cc(OC)cc(OC)c1
Return: 92

Enquiry: Complete the entry with Test C rating (% disease control) for C=C(C)c1cnc(CC)c(-c2ccccc2)c1-c1cc(OC)cc(OC)c1
Return: 98

Enquiry: Complete the entry with Test C rating (% disease control) for COc1cc(OC)cc(-c2c(C=O)cnc(C)c2-c2c(F)cc(F)cc2F)c1
Return: 93

Enquiry: Complete the entry with Test C rating (% disease control) for CCC(O)c1cnc(C)c(-c2c(F)ccc(OC)c2F)c1-c1cc(OC)cc(OC)c1 (centres unmarked)
Return: 98

Enquiry: Complete the entry with Test C rating (% disease control) for COc1cc(OC)cc(-c2c(-c3ccccc3)cnc(C)c2-c2c(F)cccc2F)c1
Return: 95

Enquiry: Complete the entry with Test C rating (% disease control) for COc1cc(OC)cc(-c2c(C3CCCC3)cnc(C)c2-c2c(F)cccc2F)c1
Return: 95

Enquiry: Complete the entry with Test C rating (% disease control) for Cc1cnc(C)c(-c2c(F)cccc2F)c1-c1ccc(Cl)cc1
Return: 0
